Test system: Fibroblast
TEST_SUMMARY: Multiplex assay against human fibroblast
Type: toxicity, cell-based
EXPERIMENTAL_PARAMETERS: 24 h, 1 µM, compound concentration 1 uM, replicate 2
This section presents molecules with their documented Population Hoechst High Intensity Objects (%) values.
Answer with a number only, understood to be in %.

# MOLECULE, OBSERVED_VALUE
rows = [
    ("COc1ccc2c(c1OCc1ccccc1)C[C@@H](C(=O)O)N(C(=O)C(c1ccccc1)c1ccccc1)C2", 2),
    ("COc1c(Nc2ccc(S(C)(=O)=O)nc2C)ncnc1OC1CCN(C(=O)OC(C)C)CC1", 10),
    ("Cc1c(Cc2ccc3ccccc3n2)c2cc(F)ccc2n1CC(=O)O", 5),
]

Okay, now this molecule:
Please look at this molecule and report its Population Hoechst High Intensity Objects (%): CCC(=O)OCC(=O)[C@@]1(OC(=O)CC)[C@@H](C)C[C@H]2[C@@H]3CCC4=CC(=O)C=C[C@]4(C)[C@@]3(Cl)[C@@H](O)C[C@@]21C [BECLOMETHASONE DIPROPIONATE]
6

###

Test system: U2OS
TEST_SUMMARY: Multiplex assay against U2OS
Assay type: toxicity, cell-based
EXPERIMENTAL_PARAMETERS: human, 48 h, 10 µM, compound concentration 10 uM, replicate 1
MEASURED_ENDPOINT: Population Pyknosed Nuclei (%)
Answer with a number only, understood to be in %.

Here is how some molecules turned out for Population Pyknosed Nuclei (%).
# MOLECULE, UNIT, Population Pyknosed Nuclei (%)
rows = [
    ("COC(c1ccccc1)(c1ccccc1)[C@H](Oc1nc(C)cc(C)n1)C(=O)O", "%", 10),
    ("CN(C)C/C=C/C(=O)Nc1ccc(C(=O)N2CCCC(Nc3ncc(Cl)c(-c4c[nH]c5ccccc45)n3)C2)cc1 (stereo not drawn)", "%", 32),
]

Okay, now this molecule:
Please look at this molecule and report its Population Pyknosed Nuclei (%): `COc1ccc2c(c1OCc1ccccc1)C[C@@H](C(=O)O)N(C(=O)C(c1ccccc1)c1ccccc1)C2`
8

###

System: Fibroblast
TEST_SUMMARY: Multiplex assay against human fibroblast
Assay type: toxicity, cell-based
EXPERIMENTAL_PARAMETERS: 48 h, 10 µM, compound concentration 10 uM, replicate 2
This section presents molecules with their documented Total Cell Count values.

Here is how some molecules turned out for Total Cell Count.
# MOLECULE, TESTED_TARGET, Total Cell Count
records = [
    ("COC(c1ccccc1)(c1ccccc1)[C@H](Oc1nc(C)cc(C)n1)C(=O)O [AMBRISENTAN]", "Fibroblast", 79),
    ("Cc1nn(C)c2nc(NNC(=O)Nc3cc(Cl)nc(Cl)c3)cc(C(C)C)c12", "Fibroblast", 155),
    ("Cc1ccc(OCC(O)C(C)NC(C)C)c2c1CCC2.Cl (stereo unspecified)", "Fibroblast", 157),
    ("COc1cc(Nc2ncc3c(n2)-c2ccc(Cl)cc2C(c2c(F)cccc2OC)=NC3)ccc1C(=O)O [ALISERTIB]", "Fibroblast", 85),
    ("Nc1nc(CC(=O)Nc2ccc(CCNC[C@H](O)c3ccccc3)cc2)cs1 [MIRABEGRON]", "Fibroblast", 132),
]

Please look at this molecule and report its Total Cell Count: COc1ccc2[nH]c(I)c(CCNC(C)=O)c2c1 [IODOMELATONIN]
150

Please look at this molecule and report its Total Cell Count: `O=C(Nc1cc(-c2ccccc2)nn1-c1ccccc1F)c1ccc([N+](=O)[O-])cc1`
153

Please look at this molecule and report its Total Cell Count: CC(C)(C)c1ccc(CSc2cnn(C(C)(C)C)c(=O)c2Cl)cc1 [PYRIDABEN]
131

Please look at this molecule and report its Total Cell Count: CN1CCN2c3ccccc3Cc3ccccc3C2C1.Cl (stereo unspecified) [MIANSERIN HYDROCHLORIDE]
125

Please look at this molecule and report its Total Cell Count: O=c1ccc2ccc(OCCCCN3CCN(c4cccc5sccc45)CC3)cc2[nH]1 [BREXPIPRAZOLE]
317

Please look at this molecule and report its Total Cell Count: O=C(NCCNCC(O)COc1ccc(O)cc1)N1CCOCC1.O=C(NCCNCC(O)COc1ccc(O)cc1)N1CCOCC1.O=C(O)/C=C/C(=O)O (stereo unspecified) [XAMOTEROL FUMARATE]
157

###

Tested on: U2OS
TEST_SUMMARY: Multiplex assay against U2OS
Format: toxicity, cell-based
EXPERIMENTAL_PARAMETERS: human, 24 h, 10 µM, compound concentration 10 uM, replicate 2
Returns Criterion met if the recorded Population Healthy Nuclei (%) is greater than or equal to 70%, and Criterion not met otherwise.

Solved cases below.
# MOLECULE, CATEGORY
data = [
    ("COc1cc2nc(N3CCN(C(=O)COc4c(OC)cccc4C(C)C)CC3)nc(N)c2cc1OC.Cl.Cl", "Criterion not met"),
    ("COc1cc(Nc2ncc3c(n2)-c2ccc(Cl)cc2C(c2c(F)cccc2OC)=NC3)ccc1C(=O)O", "Criterion met"),
    ("CCn1c(-c2nc3cc(C(=O)N4CCCC(N)C4)ccc3n2C)cc2ccccc21.Cl (stereo not given)", "Criterion not met"),
    ("N[C@](CC1c2ccccc2Oc2ccccc21)(C(=O)O)[C@H]1C[C@@H]1C(=O)O", "Criterion met"),
    ("Cc1cc(=O)n(C)c2cc(N3C(=O)CC[C@H](NS(=O)(=O)CC(C)C)[C@H]3c3ccc(Cl)cc3)ccc12", "Criterion not met"),
]

Determine whether measured Population Healthy Nuclei (%) meets or exceeds 70% for `COCCn1c(C)c(C)s/c1=N\C(=O)C1C(C)(C)C1(C)C`
Criterion not met

Determine whether measured Population Healthy Nuclei (%) meets or exceeds 70% for `O=c1ccc2ccc(OCCCCN3CCN(c4cccc5sccc45)CC3)cc2[nH]1`
Criterion not met

Determine whether measured Population Healthy Nuclei (%) meets or exceeds 70% for `S=C(NCCCc1c[nH]cn1)NCCCN(Cc1ccc(Cl)c(Cl)c1)c1ccc(Br)cn1`
Criterion not met

Determine whether measured Population Healthy Nuclei (%) meets or exceeds 70% for `CSc1nc(NC2CCCC2)c([N+](=O)[O-])c(NC2CCCC2)n1`
Criterion met

Determine whether measured Population Healthy Nuclei (%) meets or exceeds 70% for `Cc1c(Cc2ccc3ccccc3n2)c2cc(F)ccc2n1CC(=O)O`
Criterion met

Determine whether measured Population Healthy Nuclei (%) meets or exceeds 70% for O=C(O)CCC/C=C\CC1C(O)CC(O)C1/C=C/C(O)COc1cccc(Cl)c1 (stereo not given)
Criterion met

Determine whether measured Population Healthy Nuclei (%) meets or exceeds 70% for `COC(c1ccccc1)(c1ccccc1)[C@H](Oc1nc(C)cc(C)n1)C(=O)O`
Criterion met

Determine whether measured Population Healthy Nuclei (%) meets or exceeds 70% for `COc1c(Nc2ccc(S(C)(=O)=O)nc2C)ncnc1OC1CCN(C(=O)OC(C)C)CC1`
Criterion met

###

Test system: HEK-293T
TEST_SUMMARY: Multiplex assay against HEK293T
Type: toxicity, cell-based
EXPERIMENTAL_PARAMETERS: human, 48 h, 10 µM, compound concentration 10 uM, replicate 2
This section presents compounds with their documented Population Pyknosed Nuclei (%) values.
Answer with a number only, understood to be in %.

Here is how some compounds turned out for Population Pyknosed Nuclei (%).
# COMPOUND, Population Pyknosed Nuclei (%)
measured = [
    ("C[C@@H]1CC(=O)Nc2cccc(-c3ccc4c(c3)c(-c3cnn(C)c3)nn4C)c2N1", 9),
    ("Nc1nc(-c2ccco2)c2cnn(Cc3ccccc3F)c2n1", 12),
    ("COc1ccc2c(c1OCc1ccccc1)C[C@@H](C(=O)O)N(C(=O)C(c1ccccc1)c1ccccc1)C2", 7),
]

Please look at this compound and report its Population Pyknosed Nuclei (%): CCC(=O)OCC(=O)[C@@]1(OC(=O)CC)[C@@H](C)C[C@H]2[C@@H]3CCC4=CC(=O)C=C[C@]4(C)[C@@]3(Cl)[C@@H](O)C[C@@]21C [BECLOMETHASONE DIPROPIONATE]
15

###

System: Fibroblast
TEST_SUMMARY: Multiplex assay against human fibroblast
Format: toxicity, cell-based
EXPERIMENTAL_PARAMETERS: 24 h, 1 µM, compound concentration 1 uM, replicate 1
This section presents compounds with their documented Population Membrane Permeable-Phenotype (%) values.
Answer with a number only, understood to be in %.

# COMPOUND, TESTED_TARGET, OBSERVED_VALUE
data = [
    ("Nc1nc(-c2ccco2)c2cnn(Cc3ccccc3F)c2n1", "Fibroblast", 0),
    ("COc1cc2nc(N3CCN(C(=O)COc4c(OC)cccc4C(C)C)CC3)nc(N)c2cc1OC.Cl.Cl", "Fibroblast", 1),
    ("CSc1nc(NC2CCCC2)c([N+](=O)[O-])c(NC2CCCC2)n1 [GS-39783]", "Fibroblast", 3),
    ("COc1ccc2[nH]c(I)c(CCNC(C)=O)c2c1 [IODOMELATONIN]", "Fibroblast", 0),
]

Report Population Membrane Permeable-Phenotype (%) on Fibroblast for this entry: CN1CCN2c3ccccc3Cc3ccccc3C2C1.Cl (stereo not drawn) [MIANSERIN HYDROCHLORIDE]
0

Report Population Membrane Permeable-Phenotype (%) on Fibroblast for this entry: CC(C)(C)c1ccc(CSc2cnn(C(C)(C)C)c(=O)c2Cl)cc1 [PYRIDABEN]
0
